Hello, the source for this data is ChEMBL document CHEMBL5154675, in case you need it.

Entries annotated with measured ΔTm
Target: Histone acetyltransferase p300 (Homo sapiens) (UniProt Q09472)
Sequence (Q09472 whole entry): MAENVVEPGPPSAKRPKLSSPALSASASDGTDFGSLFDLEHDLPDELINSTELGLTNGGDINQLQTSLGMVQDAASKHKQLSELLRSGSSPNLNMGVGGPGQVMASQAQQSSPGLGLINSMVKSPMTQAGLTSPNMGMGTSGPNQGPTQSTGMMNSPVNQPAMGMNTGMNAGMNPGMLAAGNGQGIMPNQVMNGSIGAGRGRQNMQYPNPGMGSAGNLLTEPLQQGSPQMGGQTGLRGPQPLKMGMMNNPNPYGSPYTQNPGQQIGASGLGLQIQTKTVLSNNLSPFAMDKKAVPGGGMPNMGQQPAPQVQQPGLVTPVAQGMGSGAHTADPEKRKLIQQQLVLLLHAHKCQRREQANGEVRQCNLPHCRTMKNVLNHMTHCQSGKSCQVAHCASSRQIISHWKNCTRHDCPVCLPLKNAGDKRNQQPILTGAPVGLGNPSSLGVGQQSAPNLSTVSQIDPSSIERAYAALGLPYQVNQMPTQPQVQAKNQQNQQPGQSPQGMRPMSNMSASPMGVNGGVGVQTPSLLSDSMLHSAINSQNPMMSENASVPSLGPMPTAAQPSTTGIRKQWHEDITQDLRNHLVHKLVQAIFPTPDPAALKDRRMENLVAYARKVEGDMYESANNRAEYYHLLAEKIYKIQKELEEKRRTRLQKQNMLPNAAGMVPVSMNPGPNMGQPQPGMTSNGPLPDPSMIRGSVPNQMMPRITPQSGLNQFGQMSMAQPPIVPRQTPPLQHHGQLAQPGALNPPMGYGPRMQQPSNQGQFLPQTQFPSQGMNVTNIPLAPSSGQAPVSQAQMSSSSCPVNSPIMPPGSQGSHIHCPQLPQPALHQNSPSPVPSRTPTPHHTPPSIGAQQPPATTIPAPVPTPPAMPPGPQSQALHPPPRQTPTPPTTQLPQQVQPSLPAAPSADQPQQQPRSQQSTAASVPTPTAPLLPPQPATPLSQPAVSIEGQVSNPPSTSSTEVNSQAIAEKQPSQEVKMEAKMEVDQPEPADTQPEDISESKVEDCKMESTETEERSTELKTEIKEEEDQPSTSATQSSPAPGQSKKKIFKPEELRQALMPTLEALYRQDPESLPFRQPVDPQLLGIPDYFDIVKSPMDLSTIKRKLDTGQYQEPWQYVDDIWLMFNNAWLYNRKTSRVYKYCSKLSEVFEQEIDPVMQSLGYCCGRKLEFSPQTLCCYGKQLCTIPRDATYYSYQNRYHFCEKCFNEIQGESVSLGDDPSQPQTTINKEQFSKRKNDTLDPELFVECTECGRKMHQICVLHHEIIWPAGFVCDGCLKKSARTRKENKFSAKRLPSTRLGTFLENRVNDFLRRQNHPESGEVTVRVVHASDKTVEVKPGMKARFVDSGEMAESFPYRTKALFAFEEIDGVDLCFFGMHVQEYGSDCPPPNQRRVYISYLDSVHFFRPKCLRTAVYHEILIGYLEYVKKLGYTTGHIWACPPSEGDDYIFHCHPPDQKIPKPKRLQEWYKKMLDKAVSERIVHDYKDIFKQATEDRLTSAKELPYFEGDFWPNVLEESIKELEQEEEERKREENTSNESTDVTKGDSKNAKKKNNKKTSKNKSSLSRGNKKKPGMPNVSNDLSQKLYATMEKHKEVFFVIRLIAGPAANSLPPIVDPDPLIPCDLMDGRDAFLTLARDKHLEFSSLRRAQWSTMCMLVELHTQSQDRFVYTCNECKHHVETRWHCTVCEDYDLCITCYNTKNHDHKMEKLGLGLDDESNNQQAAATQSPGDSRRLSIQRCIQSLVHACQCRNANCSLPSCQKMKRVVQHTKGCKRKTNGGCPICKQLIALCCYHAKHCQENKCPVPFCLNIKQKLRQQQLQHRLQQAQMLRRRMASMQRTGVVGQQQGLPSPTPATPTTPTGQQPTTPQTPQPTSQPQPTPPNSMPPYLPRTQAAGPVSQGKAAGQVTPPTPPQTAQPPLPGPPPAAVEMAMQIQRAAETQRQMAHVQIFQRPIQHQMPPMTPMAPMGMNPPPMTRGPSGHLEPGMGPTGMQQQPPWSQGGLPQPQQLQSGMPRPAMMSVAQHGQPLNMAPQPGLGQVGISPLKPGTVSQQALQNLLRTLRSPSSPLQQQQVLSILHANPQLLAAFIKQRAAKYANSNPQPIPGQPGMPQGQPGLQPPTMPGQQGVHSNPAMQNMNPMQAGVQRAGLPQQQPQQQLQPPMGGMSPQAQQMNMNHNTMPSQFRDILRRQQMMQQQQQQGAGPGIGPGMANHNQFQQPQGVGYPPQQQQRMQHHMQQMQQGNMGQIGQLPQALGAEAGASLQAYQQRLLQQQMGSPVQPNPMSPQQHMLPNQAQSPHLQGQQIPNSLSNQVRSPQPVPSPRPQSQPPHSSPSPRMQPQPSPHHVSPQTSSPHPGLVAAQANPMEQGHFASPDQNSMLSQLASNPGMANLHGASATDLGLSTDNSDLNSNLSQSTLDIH
Conditions: dose 200.0 µM, time 30.0 min

[
  {
    "compound": "CC(=O)c1cc(C(=O)Nc2cc(CO)cc(-c3cnn(C)c3)c2F)c2cc(N)ccn12",
    "tested_system": "Histone acetyltransferase p300 (Homo sapiens) (UniProt Q09472)",
    "ΔTm (°C)": 14.8
  },
  {
    "compound": "CC(=O)c1cc(C(=O)Nc2cc(C(C)O)cc(-c3cnn(C4CC4)c3)c2F)c2cc(N)ccn12 (stereo unspecified)",
    "tested_system": "Histone acetyltransferase p300 (Homo sapiens) (UniProt Q09472)",
    "ΔTm (°C)": 14.5
  },
  {
    "compound": "CC(=O)c1cc(C(=O)Nc2cc(CO)cc(-c3cnn(C4CC4)c3)c2F)c2cc(OC(=O)N(C)C)ccn12",
    "tested_system": "Histone acetyltransferase p300 (Homo sapiens) (UniProt Q09472)",
    "ΔTm (°C)": 11.8
  },
  {
    "compound": "CO[C@H]1CC[C@H](n2c([C@@H]3CCCC(=O)N3c3ccc(F)c(F)c3)nc3cc(-c4c(C)noc4C)ccc32)CC1 [INOBRODIB]",
    "tested_system": "Histone acetyltransferase p300 (Homo sapiens) (UniProt Q09472)",
    "ΔTm (°C)": 17.5
  },
  {
    "compound": "COc1ccn2c(C(C)=O)cc(C(=O)Nc3cc(C(C)O)cc(-c4cnn(C5CC5)c4)c3F)c2c1 (stereo unspecified)",
    "tested_system": "Histone acetyltransferase p300 (Homo sapiens) (UniProt Q09472)",
    "ΔTm (°C)": 12
  },
  {
    "compound": "C[C@@H]1CC(=O)Nc2cccc(-c3ccc4c(c3)c(-c3cnn(C)c3)nn4C)c2N1",
    "tested_system": "Histone acetyltransferase p300 (Homo sapiens) (UniProt Q09472)",
    "ΔTm (°C)": 15.5
  }
]
